# Tested on: SK-N-MC
# procedure.text: Cytotoxicity against human SK-N-MC cells after 72 hrs by MTT assay
# Type: functional, cell-based
recorded.metric: pIC50
pIC50 is defined as minus the log10 of a concentration measured in mol/L.

Q. Lab request: please report pIC50 under test system SK-N-MC for O=c1[nH]c(/C=C/c2ccccc2)nc2ccccc12
A. 5.86

Q. Then COc1cccc(/C=C/c2nc3ccccc3c(=O)[nH]2)c1 ?
A. 5.29

Q. Now try COc1cccc(/C=C/c2nc(Cl)c3ccccc3n2)c1 .
A. 5.28

Q. Another: O=c1[nH]c(/C=C/c2ccc(Br)cc2)nc2ccccc12
A. 5.55

Q. Now consider COc1ccc(/C=C/c2nc(Cl)c3ccccc3n2)cc1 and answer again.
A. 5.36
